Test system: Pseudomonas aeruginosa expressing AmpC (CL5701)
assay explanation: Antibiotic activity: growth inhibitory concentration (OD600), Pseudomonas aeruginosa CL5701
Assay type: cell-based
conditions: lowest concentration inhibiting 95% of bacterial growth; in the presence of β lactamase inhibitor Relebactam 4 μg/mL; 35±2° C. for 22 hours; tested range 100 μM to 0.098 μM
quantity: PA_CL5701 MITC95 (µM)
Answers are plain numbers, in µM.

smiles data	quantitative readout
CC1(C)[C@H](NC(=O)/C(=N\O[C@@H](COc2ccc(Nc3cc[n+](CC4CNC4)cc3)nc2)C(=O)O)c2csc(N)n2)C(=O)N1OS(=O)(=O)[O-]	12.5

Give PA_CL5701 MITC95 for all compounds that follow.
1. CCOC(=O)[C@H](COc1ccc(-c2cn(CCCN)[n+](C)c2)cc1)O/N=C(\C(=O)N[C@@H]1C(=O)N(OS(=O)(=O)[O-])C1(C)C)c1csc(N)n1
2. Cn1c(-c2ccc(OC[C@H](O/N=C(\C(=O)N[C@@H]3C(=O)N(OS(=O)(=O)O)C3(C)C)c3csc(N)n3)C(=O)O)cc2)cn(CCCN)c1=N.O=C(O)C(F)(F)F

### Response
1: 100; 2: 3.125

----------
Can you tell me PA_CL5701 MITC95 for the items I'm about to list?
System: Pseudomonas aeruginosa expressing AmpC (CL5701)
assay explanation: Antibiotic activity: growth inhibitory concentration (OD600), Pseudomonas aeruginosa CL5701
Format: cell-based
conditions: lowest concentration inhibiting 95% of bacterial growth; in the presence of β lactamase inhibitor Relebactam 4 μg/mL; 35±2° C. for 22 hours; tested range 100 μM to 0.098 μM
Numbers only, in µM.

Give PA_CL5701 MITC95 for all molecules that follow.
1. C[n+]1cc(-c2ccc(OC[C@H](O/N=C(/C(=O)N[C@@H]3C(=O)N(OS(=O)(=O)[O-])C3(C)C)c3csc(N)n3)C(=O)O)cc2)cn1CCCNC[C@H](O)CO
2. C[n+]1cc(-c2ccc(OC[C@H](O/N=C(\C(=O)N[C@@H]3C(=O)N(OS(=O)(=O)O)C3(C)C)c3csc(N)n3)C(=O)O)cc2)ccc1CCCN
3. C[n+]1cc(OC[C@H](O/N=C(\C(=O)N[C@@H]2C(=O)N(OS(=O)(=O)O)C2(C)C)c2csc(N)n2)C(=O)O)ccc1-c1cnn(CCCN)c1.O=C([O-])C(F)(F)F

### Response
1. 12.5
2. 3.125
3. 50

----------
Tested on: Pseudomonas aeruginosa expressing AmpC (CL5701)
assay explanation: Antibiotic activity: growth inhibitory concentration (OD600), Pseudomonas aeruginosa CL5701
Format: cell-based
conditions: lowest concentration inhibiting 95% of bacterial growth; in the presence of β lactamase inhibitor Relebactam 4 μg/mL; 35±2° C. for 22 hours; tested range 100 μM to 0.098 μM
quantity: PA_CL5701 MITC95 (µM)
Numbers only, in µM.

Example cases with answers are listed next.
molecule	study target	value units	quantitative readout
CC1(C)[C@H](NC(=O)/C(=N\O[C@@H](COc2ccc(-c3cnn(CC[N+]4(C)CCOCC4)c3)cc2)C(=O)O)c2csc(N)n2)C(=O)N1OS(=O)(=O)O.O=C([O-])C(F)(F)F [Example 14]	Pseudomonas aeruginosa expressing AmpC (CL5701)	µM	12.5
C[n+]1nc(-c2ccc(OC[C@H](O/N=C(\C(=O)N[C@@H]3C(=O)N(OS(=O)(=O)[O-])C3(C)C)c3csc(N)n3)C(=O)O)cc2)ccc1NCCCN [Example 123]	Pseudomonas aeruginosa expressing AmpC (CL5701)	µM	12.5
C[n+]1cc(-c2ccc(OC[C@H](O/N=C(\C(=O)N[C@@H]3C(=O)N(OS(=O)(=O)O)C3(C)C)c3csc(N)n3)C(=O)O)cc2F)cn1CCCN [Example 24]	Pseudomonas aeruginosa expressing AmpC (CL5701)	µM	3.125
C[n+]1cc(-c2ccc(OC[C@H](O/N=C(\C(=O)N[C@@H]3C(=O)N(OS(=O)(=O)[O-])C3(C)C)c3csc(N)n3)C(=O)O)cc2)ccc1NC(CN)CN [Example 82]	Pseudomonas aeruginosa expressing AmpC (CL5701)	µM	3.125

Value of PA_CL5701 MITC95 reported for the molecule C[n+]1cc(-c2ccc(OC[C@H](O/N=C(\C(=O)N[C@@H]3C(=O)N(OS(=O)(=O)[O-])C3(C)C)c3csc(N)n3)C(=O)O)cc2F)ccc1NCCN [Example 68] is 3.125
